Exercise: for every item that follows, state its recorded GI50.
System: HOP-62
Test: NCI tumour cell line growth inhibition, 48 h
Activity calls are given as the source filed them. Cut-off read from the data, not from the text of the source: active = GI50 up to about 1.1 µM and inactive = higher.

Problem: Could you tell me which GI50 is on file for O=C1c2cc3c(cc2CC1Cc1ccc2c(c1)CCC2)CCC3 (stereo unspecified) ?
Solution: 72.4 µM (inactive)

Problem: Now this one: Cc1ccc(C(=O)C#Cc2cn(C3CC(O)C(CO)O3)c(=O)[nH]c2=O)cc1 (stereo unspecified)
Solution: > 100 µM (inactive)

Problem: Now this one: COc1ccc(C2CC(=O)c3c(O)cc(O)cc3O2)cc1O (stereo unspecified)
Solution: > 100 µM (inactive)

Problem: Now this one: COc1ccc(OC)c2[s+]snc12
Solution: > 100 µM (inactive)

Problem: Now this one: O=C1Nc2ccccc2N/C1=C\C(=O)C(F)F
Solution: > 100 µM (inactive)

Problem: Now this one: CC(C)(C)c1ccc2c(c1)C(O)(c1ccccc1)c1cc(C(C)(C)C)ccc1C2(O)C(F)(F)F (stereo unspecified)
Solution: 1.29 µM (inactive)

Problem: Now this one: C[C@H]1C2Cc3cc(N)ccc3[C@@]1(C)CCN2CCc1ccccc1
Solution: 39.5 µM (inactive)

Problem: Now this one: O=C1CC(c2ccc(Cl)cc2)C2(C(=O)NC(=O)NC2=O)C(c2ccc(Cl)cc2)C1 (stereo unspecified)
Solution: 22.9 µM (inactive)

Problem: Now this one: COc1ccc(NC(=O)CC(=O)N2N=C(C)C(/N=N\c3ccc(S(=O)(=O)c4ccc(/N=N/C5C(=O)N(C(=O)CC(=O)Nc6ccc(OC)cc6)N=C5C)cc4)cc3)C2=O)cc1 (stereo unspecified)
Solution: 45.6 µM (inactive)

Problem: Now this one: C=CCCC(On1c(-c2ccc(Cl)cc2)csc1=S)c1ccccc1 (stereo unspecified)
Solution: 90.6 µM (inactive)

Problem: Now this one: COC(=O)CC(C(C(C)=O)C(=O)OCc1ccccc1)N1C(=O)OC(c2ccccc2)C1c1ccccc1 (stereo unspecified)
Solution: 54.1 µM (inactive)
